Data origin, for the record: PubChem BioAssay (NCI)

- Test system: SK-OV-3 ovarian
- protocolText: NCI-60 one-dose screen, 48 h (100 = growth as untreated, 0 = no growth, -100 = all killed)
- setupConditions: 10 µM unless noted
Compounds without any hit were thinned out: in the full panel of roughly 83,000, 20% have a hit.
growth under 80% gets criterion met, anything at or over 80% gets criterion not met.

See these solved cases before continuing.
1. O=C1CN(CO)C(=O)CN1CO    criterion not met
2. COc1ccc(-c2nc3sccn3c2-c2ccnc(S(C)(=O)=O)n2)cc1    criterion not met
3. COc1ccc(-c2c(-c3cc(OC)c(OC)c(OC)c3)noc2N)cc1    criterion met
4. Cc1cc(NC(=O)Nc2cc(Cl)ccc2C)no1    criterion not met

Prompt: hey, is growth for O=C1OCCCCCCCCCC#Cc2ccccc21 lower than 80% or not?
Response: criterion not met

Prompt: hey, is growth for CCCCCCCC1(C)NC(=O)NC1=O (stereo not drawn) lower than 80% or not?
Response: criterion not met

* * *

- System: HT29 colon
- protocolText: NCI-60 one-dose screen, 48 h
- setupConditions: 10 µM unless noted
Compounds without any hit were thinned out: in the full panel of roughly 83,000, 20% have a hit. The source made the active and inactive calls. How the source made its calls: active means growth percent below 10; inactive means the rest.
Answer with one of the outcomes yes for active, no for inactive

1. Fc1ccc(-c2nnc(/C=C/c3cn(-c4ccccc4)nc3-c3ccccc3)o2)cc1    no

Prompt: Can you look up the reported call for Cc1scc2c1N(C(=O)CN1CCN(C)CC1)c1ccccc1NC2=O for me?
Response: no

Prompt: Can you look up the reported call for C=C(C[C@@](O)(C(=O)Oc1ccccc1)C(=O)C1CCCCC1)c1ccccc1 for me?
Response: no

Prompt: Can you look up the reported call for Cn1[nH]cc(/C=N/C(N)=O)c1=O for me?
Response: no

* * *

- Tested on: NCI-H460 lung
- protocolText: NCI-60 one-dose screen, 48 h (100 = growth as untreated, 0 = no growth, -100 = all killed)
- setupConditions: 10 µM unless noted
The panel holds about 83,000 compounds, 20% with a hit somewhere; the sample as a whole holds those more often.
Recorded growth by entry
# unit: % | format: bare number

The observed growth for O=C(/C=C/c1cc2ccccc2[nH]c1=O)c1ccc(Cl)cc1 when tested with NCI-H460 lung stands at 12

The observed growth for O=C(NN(C(=O)c1ccccc1)c1cccs1)c1ccccc1 when tested with NCI-H460 lung stands at 116

The observed growth for COc1ccc(-n2nc3c(c2-c2ccc(OC)c(OC)c2)-c2oncc2CC3)cc1 when tested with NCI-H460 lung stands at 90.3

The observed growth for COc1ccc(C(=O)/C=C/c2c(Cl)nc3c(c(C)nn3-c3ccccc3)c2-c2ccc(Br)cc2)cc1 when tested with NCI-H460 lung stands at 106

The observed growth for C[C@@H]1CC[C@H]2[C@@H](C)C(O)O[C@@H]3O[C@]4(C)CC[C@@H]1[C@]32OO4 (stereo not given in full) when tested with NCI-H460 lung stands at 30.6

The observed growth for OCCOc1c(Cl)cc(Cl)cc1Cl when tested with NCI-H460 lung stands at 108

The observed growth for CCCCCCC(C)(O)c1ccccc1 (stereo not given) when tested with NCI-H460 lung stands at 110

The observed growth for CC(=O)Nc1ccc2c(c1)Cc1c(F)c(F)c(F)c(F)c1-2 when tested with NCI-H460 lung stands at 65.8

The observed growth for CC1=NN(c2ccccc2Cl)C(=O)/C1=C\c1cn(S(=O)(=O)c2ccc(C)cc2)c2ccccc12 when tested with NCI-H460 lung stands at 119

The observed growth for CC(C)[C@]12O[C@H]1[C@@H]1O[C@]13[C@]1(O[C@H]1C[C@H]1C4=C(CC[C@@]13C)C(=O)OC4)[C@@H]2OC(=O)CN(C)C when tested with NCI-H460 lung stands at 0.675
